- protocol.notes: Oral dose escalation pharmacokinetics (10 and 100 mg/kg PO)
- Type: in vivo, rat
- measurement.context: rat plasma, PO 100 mg/kg, mean ± SD, n = 3
- Description: To this end, 36 was studied in male Sprague–Dawley rats following a single intravenous dose at 0.25 mg/kg and an oral dose at 0.5 mg/kg (SI, Table S18). Table S19. Summary of Pharmacokinetic Parameters (nmol/mL) for Compound 36 in Rat Plasma after a Single Oral Dose of 36 at 10 mg/kg or 100 mg/kg Dose Tmax Cmax Tlast Clast AUCinf t1/2 (mg/kg) (h) (nmol/mL) (h) (nmol/mL) (h*nmol/mL) (h) Results are shown as averages and standard deviations (n = 3). Figure S18. […]

[
  {
    "structure": "O=c1[nH]cccc1-c1cn(-c2cc(Cl)cc(OCCC(F)(F)F)c2)c(=O)n(-c2cccnc2)c1=O",
    "Cmax": "4.13 µM"
  }
]
